Reference for the values: PubChem BioAssay (NCI)

Measured growth inhibition values are reported for all entries that follow.
# Test details: NCI Yeast Anticancer Drug Screen. Data for the rad50 strain (AID 155);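 note: 0% = growth of vehicle-only cultures of the same strain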
# Assay context: S. cerevisiae rad50 strain growth inhibition; at 50.0 µM; hits give high values
About 79,000 compounds went through this panel and 15% of them were active in at least one assay; those are over-represented in the sample as a whole.
Record the value in %, omitting the unit from your answer.

For orientation, consider the following solved cases.
CC1=CC2C3C(=O)NC(=O)C3C1C1C3C(=O)NC(=O)C3C21 (configuration not stated) ... -25
Nc1[nH]c(=O)ncc1[N+](=O)[O-] ... 2.5
CCOC(=O)Cc1nc2sc3c(c2c(=O)[nH]1)CCCC3 ... 10.4
O=C(O)/C(=C\c1ccccc1[N+](=O)[O-])c1ccc(C(F)(F)F)cc1 ... 4
CCC(c1ccc(OC)cc1)c1cc2c(cc1OCC(=O)O)OCO2 (configuration not stated) ... 36.6
COc1ccccc1C=Nc1ccc(O)cc1 ... 8.45

-- ask Entry COc1ccc(CC(=O)NCCc2ccc(OC)c(OC)c2)cc1Br : reported growth inhibition = ?
-- reply 12.2

-- ask Entry COc1ccc(-n2nc3c(ccc4ccccc43)c2N)cc1 : reported growth inhibition = ?
-- reply 2.8

-- ask Entry CC(=O)Nc1ccc(OCCCc2ccccc2)c([N+](=O)[O-])c1 : reported growth inhibition = ?
-- reply -7.2

-- ask Entry CC1(C)OC(=O)N=C1c1ccc(F)cc1 : reported growth inhibition = ?
-- reply -9.3

-- ask Entry CCCCCCCC(=O)Oc1ccccc1 : reported growth inhibition = ?
-- reply 14.1

-- ask Entry CSC1=NC=C(C#N)C2=NC(c3ccccc3)NN12 (configuration not stated) : reported growth inhibition = ?
-- reply -0.3

----------
Measured growth inhibition values are reported for all entries that follow.
# Test details: NCI Yeast Anticancer Drug Screen. Data for the mlh1 rad18 strain (AID 175)
# Assay context: S. cerevisiae mlh1 rad18 strain growth inhibition; at 50.0 µM; hits give high values
# Protocol: Growth inhibition of yeast strains with defined genetic alterations is measured as a screen for potential anti-cancer activity. Selected strains with alterations in DNA damage repair or cell cycle control were exposed to compounds and growth inhibition was measured relative to vehicle treated controls. The strain used in this assay is mlh1 rad18
About 79,000 compounds went through this panel and 15% of them were active in at least one assay; those are over-represented in the sample as a whole.
Record the value in %, omitting the unit from your answer.

For orientation, consider the following solved cases.
COC1=CC(=O)N(C(=O)C2CSC(C(CO)NC(=O)c3csc(/C=N/O)n3)=N2)C1 (stereo unspecified) ... 19.9
OC1OCC(COc2ccc(Cl)cc2)OC1O (stereo unspecified) ... 18.9
O=c1ccc2ccc(O)cc2o1 ... -11.8
CC1CCC(C(C)C)N(C)CC1 (stereo unspecified) ... -2.2
c1ccc(CC2=NCCc3ccccc32)cc1 ... -8.7
OC1CCC(C#CC#CC2CCC(O)CC2)CC1 (stereo unspecified) ... -1.7
CN(C)c1ccccc1CC(=O)Nc1ccccc1 ... 3.1
CCN(CC)c1ncnc2n[nH]nc12 ... 3.45
COc1ccc(C(=O)C(C(=O)C(=O)NCCCNC(=O)C(=O)C(C(=O)c2ccc(OC)cc2)c2ccc(OC)cc2)c2ccc(OC)cc2)cc1 (stereo unspecified) ... -10.7
COC(=O)C(Cl)(Cl)c1nc(NC(C)=O)[nH]c(=O)c1Cl ... 0.45

# next molecule below
-- ask Entry CCC(C(=O)O)C(=O)O : reported growth inhibition = ?
-- reply 10.3

----------
# Test details: NCI Yeast Anticancer Drug Screen. Data for the sgs1 mgt1 strain (AID 161);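 note: 0% = growth of cultures given vehicle only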
# Assay context: S. cerevisiae sgs1 mgt1 strain, at 50.0 µM, hits give high values
About 79,000 compounds went through this panel and 15% of them were active in at least one assay; those are over-represented in the sample as a whole.
Test readout: growth inhibition (%)
Record the value in %, omitting the unit from your answer.

-- ask Entry O=C1C(=O)c2ccccc2C(O)=C1CN(CCO)CCO : reported growth inhibition = ?
-- reply 24.2

-- ask Entry CCCCC(C)(O)CCC (configuration not stated) : reported growth inhibition = ?
-- reply 0.5

-- ask Entry C[n+]1cc(I)cc2ccccc21 : reported growth inhibition = ?
-- reply -9.55

-- ask Entry CCOC(=O)c1ccc2c(c1)Cc1c-2cc(Br)c(N)c1Br : reported growth inhibition = ?
-- reply 45

-- ask Entry COC1CC(NC(C)=O)C2OC(c3ccccc3)OCC2O1 (configuration not stated) : reported growth inhibition = ?
-- reply -10.2

-- ask Entry CC1(C)C=Cc2c(ccc(C(=O)Cc3ccccc3)c2O)O1 : reported growth inhibition = ?
-- reply 26.4

-- ask Entry O=C(O)CSc1cc(Br)c(Br)cc1C(=O)O : reported growth inhibition = ?
-- reply -0.85

----------
Measured growth inhibition values are reported for all entries that follow.
# Test details: NCI Yeast Anticancer Drug Screen. Data for the mec2-1 strain (AID 157)
# Assay context: S. cerevisiae mec2-1 strain, at 50.0 µM, hits give high values
The panel holds about 79,000 compounds, 15% with a hit somewhere; the sample as a whole holds those more often.
Record the value in %, omitting the unit from your answer.

For orientation, consider the following solved cases.
Clc1ccccc1C(N1CCCCC1)C(Cl)(Cl)Cl (configuration not stated) ... 14.6
O=c1oc2ccccc2c(O)c1C(c1ccc2c(c1)OCO2)N1CCOCC1 (configuration not stated) ... 25.2
S=c1nc[nH]c2c1ncn2C1CCCC1 ... -4.75
CN(C)C=Nc1ccc2[nH]c3ccccc3c2c1 ... -13.1
O=C(NC(O)C(=O)O)c1ccc(Cl)cc1 (configuration not stated) ... -10.9

-- ask Entry N#CC1CCCC[N-]1.[NH-]CC[N-]CC[NH-].[Pt+4] (configuration not stated) : reported growth inhibition = ?
-- reply 17.2

-- ask Entry CCCc1cc(C(=O)OC/C(C)=N/O)c2ccccc2n1 : reported growth inhibition = ?
-- reply 0.7

----------
# Test details: NCI Yeast Anticancer Drug Screen. Data for the mec2-1 strain (AID 157)
# Assay context: S. cerevisiae mec2-1 strain, at 50.0 µM, hits give high values
Compounds without any hit were thinned out: in the full panel of roughly 79,000, 15% have a hit.
Test readout: growth inhibition (%)
Record the value in %, omitting the unit from your answer.

-- ask Entry CCOP(=O)(OCC)/C(C#N)=C\c1ccc(N(C)C)cc1 : reported growth inhibition = ?
-- reply 6.3

-- ask Entry CC(=O)C(C)CCOC1(C)OCCC1C (stereo unspecified) : reported growth inhibition = ?
-- reply 5.25

-- ask Entry O : reported growth inhibition = ?
-- reply 9.15

-- ask Entry CC1=NN(c2nc(N)nc(CO)n2)C(C)(C)C1 : reported growth inhibition = ?
-- reply 5.75

-- ask Entry O=C(Cl)c1cc(-c2ccccc2)nc2c(Cl)cccc12 : reported growth inhibition = ?
-- reply 39.4

-- ask Entry O=C1C(Cl)(Cl)C(=O)C(Cl)(Cl)C(=O)C1(Cl)Cl : reported growth inhibition = ?
-- reply 24.5

-- ask Entry CC(C)(C)NC(=O)NCCCCCCNC(=O)NC(C)(C)C : reported growth inhibition = ?
-- reply -13.9

-- ask Entry CC(C)=CCC1=C(OC2OC(CO)C(O)C(O)C2O)C(=O)c2ccccc2C1=O (stereo unspecified) : reported growth inhibition = ?
-- reply 15.6

-- ask Entry COC1(OC)C=NNc2nccn21 : reported growth inhibition = ?
-- reply -2.5

----------
# Test details: NCI Yeast Anticancer Drug Screen. Data for the sgs1 mgt1 strain (AID 161);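 note: 0% = growth of cultures given vehicle only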
# Assay context: S. cerevisiae sgs1 mgt1 strain, at 50.0 µM, hits give high values
This is part of a sample that, as a whole, favours compounds with a hit. Of some 79,000 tested, about 15% had one in any assay.
Test readout: growth inhibition (%)
Record the value in %, omitting the unit from your answer.

Cc1cc(C)c(C(=O)OCCN(C)C)c(C)c1 ... 9.9
NC(=O)CCBr ... -5.45
CCCCCCCCCCCCCC(=O)Oc1ccc2ccccc2c1 ... -3.85
CC[P+]1(c2ccccc2)[C@@H](C)CC[C@@H]1C ... 12.6
CCOC(=O)C1CSC(c2ccccc2)=N1 (configuration not stated) ... -2.35
CCOC(=O)c1ccc(N(C=O)CCC(OCC)OCC)cc1 ... 4.35

-- ask Entry CCCCCCCCCCCCOC(=O)CSC#N : reported growth inhibition = ?
-- reply -31.9

-- ask Entry CC1=NNC(=O)CC1C(O)c1ccccc1 (configuration not stated) : reported growth inhibition = ?
-- reply -12.1

-- ask Entry CCOC(=O)CC(c1ccc2c(c1)OCO2)c1cc(OC)c(OC)c(OC)c1 (configuration not stated) : reported growth inhibition = ?
-- reply -3

-- ask Entry CCCN1COC(OCCN(CC)CC)C(C)(C)C1 (configuration not stated) : reported growth inhibition = ?
-- reply -21.3

-- ask Entry N#CC(C(=O)/C(=N\NC(N)=O)C(C#N)c1ccc(Cl)cc1)c1ccc(Cl)cc1 (configuration not stated) : reported growth inhibition = ?
-- reply -22.1

-- ask Entry O=C/C=C/N=c1ccn(O)cc1 : reported growth inhibition = ?
-- reply 3.05

-- ask Entry COC(OC)(c1ccccc1)c1ccccc1 : reported growth inhibition = ?
-- reply -33

-- ask Entry O=C(O)Cc1ccc(-c2ccccc2)cc1 : reported growth inhibition = ?
-- reply 21.2

-- ask Entry CCOC(=O)C1CC(C)CC1=O (configuration not stated) : reported growth inhibition = ?
-- reply -4.6

-- ask Entry S=C(N/N=C\c1ccccc1)Nc1ccccc1 : reported growth inhibition = ?
-- reply -8.2

-- ask Entry O=C(c1ccccc1)c1ccc2cccc3c2c1CC3 : reported growth inhibition = ?
-- reply 32.1

-- ask Entry CCOC(=O)C(NC(=O)CC)(Nc1ccc(S(=O)(=O)Nc2ncccn2)cc1)C(F)(F)F (configuration not stated) : reported growth inhibition = ?
-- reply -10.5

-- ask Entry CCCN(CCC)CCc1cc(C(C)=O)n(S(=O)(=O)c2ccc(C)cc2)c1 : reported growth inhibition = ?
-- reply 0.3

-- ask Entry Cc1ccc(NC(=S)Nc2cccc(C(F)(F)F)c2)cc1C : reported growth inhibition = ?
-- reply -5.75
